Where these numbers come from: patent US6323185

Assay System: HIV-1 integrase wild-type (IN1-288) (HIV-1, UniProt P12497 P12497:1148-1435)
Assay Overview: inhibition; first activity column (headed strand transfer); other column 0.040
Cond: G4
Measured Property: IC50 (nM)
Quick reminder: number only, in nM, skip the unit.

Ask: So what does the record say about IC50 for GTGGTGGGTGGGTGGGT (ssDNA, PS at first and last linkages, capital T = C5-propynyl dU) [T30700] ?
Result: 82
